target: c-Met (Homo sapiens); construct: Kinases are expressed as either kinase domains or full length constructs; made in house; assay: Kinase inhibition assay (33P transfer), c-Met; assay type: biochemical; conditions: Table 2, kinase inhibition class; read-out: Met-1
Sequence (P08581 25-1390): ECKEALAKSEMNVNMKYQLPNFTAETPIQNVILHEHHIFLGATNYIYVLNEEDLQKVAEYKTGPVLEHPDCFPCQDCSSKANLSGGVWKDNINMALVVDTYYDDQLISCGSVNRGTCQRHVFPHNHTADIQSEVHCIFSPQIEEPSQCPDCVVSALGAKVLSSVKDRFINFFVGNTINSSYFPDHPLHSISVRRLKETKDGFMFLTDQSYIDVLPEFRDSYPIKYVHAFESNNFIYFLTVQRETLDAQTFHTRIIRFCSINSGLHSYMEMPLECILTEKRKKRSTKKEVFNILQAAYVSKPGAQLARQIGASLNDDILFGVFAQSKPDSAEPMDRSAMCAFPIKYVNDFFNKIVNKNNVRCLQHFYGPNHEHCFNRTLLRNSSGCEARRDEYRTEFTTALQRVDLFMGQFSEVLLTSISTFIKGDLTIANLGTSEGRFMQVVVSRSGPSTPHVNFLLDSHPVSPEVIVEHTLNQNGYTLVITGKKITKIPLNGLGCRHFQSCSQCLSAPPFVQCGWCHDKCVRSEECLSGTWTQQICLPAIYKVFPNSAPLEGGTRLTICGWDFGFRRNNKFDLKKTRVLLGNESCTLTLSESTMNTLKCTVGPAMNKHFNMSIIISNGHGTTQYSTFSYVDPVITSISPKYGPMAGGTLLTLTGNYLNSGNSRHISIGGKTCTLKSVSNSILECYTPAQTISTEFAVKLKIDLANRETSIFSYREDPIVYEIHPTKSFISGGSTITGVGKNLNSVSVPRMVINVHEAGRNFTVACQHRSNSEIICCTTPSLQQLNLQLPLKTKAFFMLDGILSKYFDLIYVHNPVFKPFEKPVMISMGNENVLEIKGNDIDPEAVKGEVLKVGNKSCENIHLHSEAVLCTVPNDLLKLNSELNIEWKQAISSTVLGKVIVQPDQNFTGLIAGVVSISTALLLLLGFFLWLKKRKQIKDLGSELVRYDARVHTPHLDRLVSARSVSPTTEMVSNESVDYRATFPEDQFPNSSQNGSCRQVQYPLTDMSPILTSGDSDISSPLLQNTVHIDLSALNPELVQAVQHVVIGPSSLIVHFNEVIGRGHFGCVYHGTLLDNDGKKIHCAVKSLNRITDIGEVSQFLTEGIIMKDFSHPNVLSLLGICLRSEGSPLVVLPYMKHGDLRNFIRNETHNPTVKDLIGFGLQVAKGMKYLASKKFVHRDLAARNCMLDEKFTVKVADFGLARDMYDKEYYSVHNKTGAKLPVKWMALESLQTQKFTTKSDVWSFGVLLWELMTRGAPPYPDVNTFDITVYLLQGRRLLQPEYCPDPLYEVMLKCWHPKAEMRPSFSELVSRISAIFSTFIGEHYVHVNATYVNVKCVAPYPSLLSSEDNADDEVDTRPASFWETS
pIC50: −log10 of the molar value.

line notation: COc1cc(Nc2ncnc(Nc3ccc4[nH]ccc4c3)n2)cc(OC)c1OC
experimental system: c-Met (Homo sapiens)
pIC50: 5.05 to 5.21
//
line notation: Brc1ccc(Nc2ncnc(-n3cccc3)n2)cc1
experimental system: c-Met (Homo sapiens)
pIC50: < 4.85
//
line notation: Clc1ncnc(Nc2ccc(OCc3ccccc3)cc2)n1
experimental system: c-Met (Homo sapiens)
pIC50: < 4.84
//
line notation: COc1cc(Nc2ncnc(N3CCCC3)n2)cc(OC)c1OC
experimental system: c-Met (Homo sapiens)
pIC50: < 4.87
//
line notation: COc1cc(Nc2ncnc(Nc3ccc4[nH]ncc4c3)n2)cc(OC)c1OC
experimental system: c-Met (Homo sapiens)
pIC50: 5.05 to 5.21

Reference source: patent US7074789B2
